Listing of recorded TGI by entry.
- Test system: UACC-257 melanoma
- procedure_details: NCI tumour cell line growth inhibition, 48 h
attribute_measured: TGI

compound=Cc1cc2c(C)nn(Cc3ccccc3)c2c(C(N)=O)c1C measured_result="> 100 µM"
compound="Fc1ccc(C(OCCN2CCC3CCC(C2)N3C/C=C/c2ccco2)c2ccc(F)cc2)cc1 (stereo unspecified)" measured_result="17.4 µM"
compound="CC1CC[C@@]2(OC1)OC1C[C@H]3[C@@H]4CC=C5CC(OC6OC(CO)C(OC7OC(CO)C(O)C(OC8OCC(O)C(O)C8O)C7OC7OC(CO)C(O)C(O)C7O)C(O)C6O)CCC5(C)[C@H]4CCC3(C)C1[C@@H]2C (stereo partly specified)" measured_result="18 µM"
compound=Nc1ccccc1S(=O)(=O)c1ccccc1 measured_result="> 100 µM"
compound="Nc1nc(N)c2nc(CNc3ccc(C(=O)NC(CC(=O)O)C(=O)O)cc3)cnc2n1 (stereo unspecified)" measured_result="> 100 µM"
compound=O=[N+]([O-])c1ccc2c(c1)Cc1cc(N=Cc3ccc4c(c3)OCO4)ccc1-2 measured_result="> 100 µM"
compound=O=C1NC(=S)N/C1=C\c1ccc(Br)s1 measured_result="> 100 µM"
compound=Cc1cc(N(CCC#N)CCC#N)ccc1/C(N=Nc1ccc(C(=O)O)cc1)=N\NC(=O)c1cc(Cl)ccc1O measured_result="> 100 µM"
compound=Cc1cc(Cl)ccc1Nc1nc(C(F)(F)F)ccc1C(=O)N/N=C/c1ccc(Cl)cc1 measured_result="16.3 µM"
compound=COc1cccc2c1Cc1cc(-c3ccccc3)[n+](C)n1-2 measured_result="14.4 µM"
compound=O=C(c1cccs1)N(C(=S)OC12CC3CC(CC(C3)C1)C2)c1ccccc1 measured_result="> 100 µM"
compound=COc1cc2c(ccc3c4cc(OC)c(OC)cc4c[n+](C)c23)cc1O measured_result="> 75 µM"
compound=C1=CC=C2NCCCCCCCNC3=CC=CC=CC3=NCCCCCCCN=C2C=C1 measured_result="> 100 µM"
compound=O=C1c2cccc(NCCN=Cc3cc([N+](=O)[O-])ccc3O)c2C(=O)c2c(NCCN=Cc3cc([N+](=O)[O-])ccc3O)cccc21 measured_result="> 100 µM"
compound="COC(=O)/C(=N\\NC(=O)C[N+](C)(C)C)C(C(=O)OC)C(=O)C(=O)Nc1ccccc1C(N)=O (stereo unspecified)" measured_result="> 100 µM"
compound=COc1cc2c(cc1OC)C(=O)/C(=C/c1ccc(Cl)cc1)CC2 measured_result="> 10 µM"
compound=CC(=O)Oc1ccc(-c2cc3ccccc3oc2=O)cc1 measured_result="> 100 µM"
compound="COC(=O)C1CN=CN1CCc1ccccc1 (stereo unspecified)" measured_result="> 100 µM"
compound="COCC(O)Cn1ccnc1[N+](=O)[O-] (stereo unspecified)" measured_result="> 100 µM"
compound="CC1OC(n2c3ccccc3c3c4c(c5c6ccccc6[nH]c5c32)C(=O)N(CCN[C@@H]2CCC[C@H]2N)C4=O)CC(O)C1O (stereo partly specified)" measured_result="10.5 µM"
compound="CN1c2ccccc2N(C(=O)c2ccc(Cl)cc2)C(CC(=O)O)c2cccn21 (stereo unspecified)" measured_result="> 100 µM"
compound=COC(=O)c1ccccc1OCc1cc(=O)oc2ccc(C)cc12 measured_result="> 100 µM"
compound=COc1ccc(-n2c(=O)[nH]n(C(C)=O)c2=O)cc1 measured_result="> 100 µM"
compound=O=C(Nc1cccc(-n2cc(-c3ccncc3)c(-c3ccc(Cl)c(O)c3)n2)c1)c1ccc(N2CCOCC2)c(C(F)(F)F)c1 measured_result="36.8 µM"
compound="Cc1cccc(N(C(=O)Nc2ccc(Cl)c(Cl)c2)C2=NCC(C)S2)c1 (stereo unspecified)" measured_result="> 100 µM"
compound="CCC1CN2C(=N1)c1ccccc1-c1cc(Cl)ccc12 (stereo unspecified)" measured_result="10.3 µM"
compound="Cc1c(N2C(=O)CS(=O)(=O)C2c2cccc(Oc3ccccc3)c2)c(=O)n(-c2ccccc2)n1C (stereo unspecified)" measured_result="> 100 µM"
compound=Cc1cc(C(=C2C=CC(=Nc3ccccc3)C=C2)c2ccc(Nc3ccccc3)cc2)ccc1N measured_result="1.04 µM"
compound=CNCCCn1c2c(c3ccc([N+](=O)[O-])cc3c1=O)C(=O)c1cc(OC)cnc1-2 measured_result="0.953 µM"
compound=O=C1NCc2ccccc2S(=O)(=O)n2cccc21 measured_result="> 100 µM"
compound=O=c1[nH]nc2ccccc2c1Cc1ccccc1 measured_result="> 100 µM"

###

- System: SF-539 CNS
- procedure_details: NCI tumour cell line growth inhibition, 48 h
Listing of recorded TGI by entry.
attribute_measured: TGI

molecule=COc1ccc(N=Cc2ccc(N(CCC#N)S(=O)(=O)c3ccccc3)cc2)cc1 measured_result="> 100 µM"
molecule="CC(=O)OCC1OC(OC2CC3C(C)(C)C(OC(C)=O)CC[C@]3(C)C3CCC45CC4(CCC5[C@@H](C)C[C@H](O)C(O)C(C)(C)O)[C@]23C)C(O)C(O)C1O (stereo partly drawn)" measured_result="> 10 µM"
molecule=O=C(CCc1ccc(O)c(O)c1)NCCc1cc(O)cc(O)c1 measured_result="> 100 µM"

###

- System: HCT-116 colon
- procedure_details: NCI tumour cell line growth inhibition, 48 h; in the data active = GI50 below about 0.43 µM; inactive = the rest
Outcome codes: active, inactive

molecule=C=C1/C(=C\C=C2/CCC[C@]3(C)[C@@H]([C@H](C)CCCC(C)(C)O)CC[C@@H]23)C[C@@H](OC(=O)CBr)C[C@@H]1O qualitative_label=inactive
molecule=O=C(Cn1c(=O)c(-c2ccccc2)nc2ccccc21)Nc1ccc(F)cc1 qualitative_label=inactive
molecule=CNC(=O)c1cccc2cc(Oc3ccnc4cc(OCC5(N)CC5)c(OC)cc34)ccc12 qualitative_label=inactive
molecule="O=c1ccn(C2CC(O)C(CO)O2)c(=O)[nH]1 (stereo not given)" qualitative_label=inactive
molecule=COc1cc2c3c(n(CCCCN)c(=O)c2cc1OC)-c1cc2c(cc1C3=O)OCO2 qualitative_label=active

###

- Test system: LOX IMVI melanoma
- procedure_details: NCI tumour cell line growth inhibition, 48 h
Listing of recorded TGI by entry.
attribute_measured: TGI

compound=O=c1ccn([C@@H]2C[C@@H]2CO)c(=O)[nH]1 attribute_measured=TGI measured_result="> 100 µM"
compound=CCCc1cc(=O)[nH]c(-n2nc(C)cc2C)n1 attribute_measured=TGI measured_result="> 100 µM"
compound="Cc1nn(C(=O)Cc2ccccc2)c2c1C(c1ccc(O)cc1O)SC(N)=N2 (stereo not drawn)" attribute_measured=TGI measured_result="> 100 µM"

###

Listing of recorded TGI by entry.
- Tested on: SNB-19 CNS
- procedure_details: NCI tumour cell line growth inhibition, 48 h
attribute_measured: TGI

compound=Cc1cc2c(cc1Cl)S(=O)(=O)OC(c1ccc([N+](=O)[O-])cc1)=N2 measurement_target="SNB-19 CNS" measured_result="> 100 µM"
compound="Cc1ccc([N+](=O)[O-])cc1NC(=O)/C(=N/NC(=S)NN)C1SC(=S)NC1=O (stereo unspecified)" measurement_target="SNB-19 CNS" measured_result="> 100 µM"
compound=Nc1nc(SCCc2ccccc2)nc2nc3c(c(-c4ccccc4)c12)CCCC3 measurement_target="SNB-19 CNS" measured_result="> 100 µM"
compound=COC1=CC(c2ccc[nH]2)=N/C1=C\c1[nH]c(C)c(C(=O)CCCCC(=O)NC(C)(C)C)c1C measurement_target="SNB-19 CNS" measured_result="18.7 µM"
compound=Cc1cc(Cl)ccc1Nc1nc(C(F)(F)F)ccc1C(=O)N/N=C/c1ccc(Cl)cc1 measurement_target="SNB-19 CNS" measured_result="12.4 µM"
compound="C=CCC(N(C)C(=O)[C@H](Cc1ccccc1)NC(=O)OCc1ccccc1)P(=O)(Oc1ccccc1)Oc1ccccc1 (stereo partly specified)" measurement_target="SNB-19 CNS" measured_result="> 100 µM"
compound="O=c1ccn(C2CC(O)C(CO)O2)c(=O)[nH]1 (stereo unspecified)" measurement_target="SNB-19 CNS" measured_result="> 5000 µM"
compound="Cc1cn(C2CC(O)C(COC(=O)NCCC(F)(F)C(F)(F)C(F)(F)C(F)(F)F)O2)c(=O)[nH]c1=O (stereo unspecified)" measurement_target="SNB-19 CNS" measured_result="> 100 µM"
compound="O=C1CSC(c2ccc([N+](=O)[O-])cc2)N1c1ccc(-n2c(-c3ccccc3)nc3ccccc3c2=O)cc1 (stereo unspecified)" measurement_target="SNB-19 CNS" measured_result="> 100 µM"
compound="CC(C)OCC1CC(CC(=O)Nc2nncs2)C(=O)O1 (stereo unspecified)" measurement_target="SNB-19 CNS" measured_result="> 100 µM"
compound="C=CCOC(=O)NC1C(OC(C)[C@@H](NC(=O)OCc2ccccc2)C(=O)OC(C)(C)C)OC(COC(C)=O)C(OC(C)=O)C1OC(C)=O (stereo partly specified)" measurement_target="SNB-19 CNS" measured_result="> 100 µM"

Ref: PubChem BioAssay (NCI)
